Could you please report measured NADPH fluorescence slope for the items listed next?
molecular target: Voltage-gated potassium channel subunit beta-2 (Rattus norvegicus) (UniProt P62483); assay: enhancers of rat Kvbeta2 NADPH turnover – biochemical, NADPH fluorescence, primary screen (AID 623); settings: Recombinant KvBeta, NADPH fluorescence decrease slope, 10 min; at 10 µM; active compounds read low;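 further: fluorescence intensity change per second fitted from 20 to 320 s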
Sequence (P62483 whole entry, looked up): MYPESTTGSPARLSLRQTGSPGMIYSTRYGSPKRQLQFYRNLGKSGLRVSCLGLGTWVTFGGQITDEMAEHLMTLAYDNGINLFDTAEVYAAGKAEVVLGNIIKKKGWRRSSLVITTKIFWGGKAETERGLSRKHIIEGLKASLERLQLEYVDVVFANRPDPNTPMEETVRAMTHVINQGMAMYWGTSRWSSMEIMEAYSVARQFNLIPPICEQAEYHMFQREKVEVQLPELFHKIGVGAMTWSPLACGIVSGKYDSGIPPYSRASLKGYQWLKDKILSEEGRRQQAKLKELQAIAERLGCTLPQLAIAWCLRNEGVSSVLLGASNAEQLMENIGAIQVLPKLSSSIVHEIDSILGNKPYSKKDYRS
Lab note: write the figure by itself, no unit.

The reported value for "CCn1cc(C(=O)NCc2ccccc2OC)c(=O)c2cc(S(=O)(=O)N(C)C)ccc21" in terms of NADPH fluorescence slope is -4e-05

# compound "C=CCn1c(SCc2cc(=O)n3ccsc3n2)nnc1C1CCCCC1" ; its NADPH fluorescence slope = -1.8e-05

NADPH fluorescence slope reading for "Cc1cc(C)n(-c2nc3ccccc3c(=O)n2OCCOc2ccccc2)n1" : 8.7e-05

Reported NADPH fluorescence slope ( "CC1(C)CC(=O)c2c(O)cc(O)cc2O1" ) = -4.2e-05

Please fill in: NADPH fluorescence slope reported for Cc1cc(OCC(O)CN2CCN(CCO)CC2)ccc1C(C)C (stereo unspecified) = -3.1e-05

Measured NADPH fluorescence slope of "CCOC(=O)c1ccc(NC(=O)CCNc2c(N3CCCC3)c(=O)c2=O)cc1" : 5.7e-06

The compound listed as "Cc1cccc(-n2c(SCc3cc(=O)n4ccsc4n3)nc3ccccc32)c1" has a reported NADPH fluorescence slope of 1.8e-05

Given item "CC(C)CN1C(=O)c2ccc(C(=O)Nc3nccs3)cc2C1=O" , the value recorded as its NADPH fluorescence slope is -2.9e-06

Consider CC(C)CCNC(=O)C(c1ccco1)N(CC1CCCO1)C(=O)Cn1nnc2ccccc21 (stereo unspecified) . Its measured NADPH fluorescence slope is -4.6e-05

NADPH fluorescence slope reading for O=C(O)C1CCCCC1C(=O)Nc1ccccn1 (stereo unspecified) : -5e-05

Lab book: NADPH fluorescence slope of COc1ccccc1N1CCN(C(=O)C2CC=CCC2C(=O)O)CC1 (stereo unspecified) noted as -1.2e-05

Form field NADPH fluorescence slope, entry "CC(C)=CC(=O)OCC(=O)NC(=O)NC(C)(C)C" : -1.3e-05

The recorded NADPH fluorescence slope for entry "COCCNC(=O)c1cc2c(-c3ccccc3F)nn(C)c2s1" equals -3.7e-06

The compound identified as CCC1CCCCN1S(=O)(=O)c1ccc(C(=O)Nc2nnc(-c3ccccc3Cl)o2)cc1 (stereo unspecified) registered its NADPH fluorescence slope at -3.2e-05

Item: "Cc1ccc2[nH]c3c(c2c1)CN(C(=O)CN1CCN(c2cccc(C)c2C)CC1)CC3" | NADPH fluorescence slope: -2.6e-05

The compound listed as CC(NC(=O)c1ccc2c(c1)OCO2)C(c1cccs1)N1CCOCC1 (stereo unspecified) has a reported NADPH fluorescence slope of 2.3e-05

Item: Cc1ccc(C2CC(c3ccc(C)cc3)n3nc(N)nc3N2)cc1 (stereo unspecified) | NADPH fluorescence slope: -1.7e-05

Reported NADPH fluorescence slope for "O=C(CSc1nc(-c2ccc(F)cc2)cs1)N1CCOCC1" was 2.4e-05

The compound listed as "O=C(Nc1ccc2oc(-c3ccncc3)nc2c1)c1cccs1" shows NADPH fluorescence slope equal to -0.000115

The reported value for "OC1(c2cccc(C(F)(F)F)c2)CCNCC1" in terms of NADPH fluorescence slope is 2.4e-05

Measured NADPH fluorescence slope of "CC(=O)N1CCN(c2ccc(NC(=O)c3ccc(C(C)(C)C)cc3)cc2)CC1" : -4e-05

The recorded NADPH fluorescence slope for entry "COc1ccc(/C=N/O)cc1COc1ccc(NC(C)=O)cc1" equals -1.6e-05

Kindly note the recorded NADPH fluorescence slope for "Cc1cc(/N=C/N(C)C)on1" , which is -4.7e-05

The compound listed as "CC(=O)Nc1ccc(Cc2ccncc2)cc1" shows NADPH fluorescence slope equal to -4.8e-05

Entry under test: "COc1ccc(C(=O)NC(=O)CSc2nnc(-c3ccco3)n2-c2ccccc2)cc1" . Its NADPH fluorescence slope was -7e-05

Lab note: "Cc1nc2oc3c(NCc4ccccn4)ncnc3c2c2c1COC(C)(C)C2" gave NADPH fluorescence slope of -4.2e-06

Measured NADPH fluorescence slope, "Cc1cc(NC(=O)CCCC(=O)Nc2ccc(F)cc2)no1" : 9.1e-07

NADPH fluorescence slope reading for "COC(=O)Cn1c(CN2CCOCC2)nc2c1c(=O)n(C)c(=O)n2C" : -5.7e-05

So for "COc1ccc(N2CCN(CCNS(=O)(=O)c3cccc4nsnc34)CC2)cc1" , the logged NADPH fluorescence slope turned out to be 1.8e-05

Data point: "FC(F)Oc1cccc2cccnc12" ; NADPH fluorescence slope = -1.3e-05

NADPH fluorescence slope in this record for Cc1ccc(S(=O)(=O)N2CCCC(c3nnc4n3-c3ccccc3SC4)C2)cc1 (stereo unspecified) : -3.6e-05

Record "CCOC(=O)c1cc2sccc2n1CC(=O)Nc1ccc2c(c1)OCCO2" . Reported NADPH fluorescence slope: 4.2e-06

The value of NADPH fluorescence slope measured for the compound CCOc1ccc(C(=O)N(Cc2ccc(N(C)C)cc2)C2CCS(=O)(=O)C2)cc1 (stereo unspecified) turned out to be -3.1e-05

NADPH fluorescence slope reading for "CCOc1ccc(NCCC(=O)c2ccc3c(c2)OCO3)cc1" : 8.4e-06

// recorded NADPH fluorescence slope for "NS(=O)(=O)c1ccc(NC(=O)CSc2nnc(Cc3cccs3)n2-c2ccccc2)cc1" : -4.3e-05

For reference, reported NADPH fluorescence slope for "Cc1ccc(-n2c(Cc3cccn3C)nnc2SCC(=O)NCc2ccc3c(c2)OCO3)cc1" stands at 2.3e-05

Just so you know, measured NADPH fluorescence slope for "C=CS(=O)(=O)c1ccc(Oc2ccc(S(=O)(=O)C=C)cc2)cc1" came out at -2.6e-05

NADPH fluorescence slope reading for "CC(=O)Nc1ccc2nc(-c3cccnc3)[nH]c2c1" : 1.8e-05

Record "Cc1nc(SCc2ccc(Br)cc2)[nH]c(=O)c1C" , field NADPH fluorescence slope: -2.5e-05

The reported value for "CS(=O)(=O)NCc1nnc(SCC(=O)NC2CCCCC2)n1-c1ccc(F)cc1" in terms of NADPH fluorescence slope is -5.9e-05

// sample "Cn1c(SCc2cccc3ccccc23)nnc1-c1ccco1" , its NADPH fluorescence slope was 2.1e-05

# compound "COc1ccc2c(C(F)(F)F)cc(=O)oc2c1C" ; its NADPH fluorescence slope = 1.9e-05

// NADPH fluorescence slope lookup, compound = Cc1nnc(NC(=O)C2CCCO2)s1 (stereo unspecified) , result: -4.2e-05

Entry Cc1c(NC(=O)C(C)Oc2ncnc3ccccc23)c(=O)n(-c2ccccc2)n1C (stereo unspecified) ; NADPH fluorescence slope = -5e-05

Per the record, COC(=O)c1sc(N)c(C(=O)OC)c1COC(=O)C1CC(=O)N(Cc2ccco2)C1 (stereo unspecified) has NADPH fluorescence slope of -4.3e-05

// NADPH fluorescence slope lookup, compound = CN(C(=O)C1CCOC1)c1nnc(-c2cccnc2)s1 (stereo unspecified) , result: -1.1e-05
